Source of measurements: patent US5480885A

test-protocol: prolongation of pentobarbital-induced anesthesia in mice
stated-conditions: mouse, in vivo, ip
For each record, write down the corresponding ED50.
Please report the result as a number followed by the unit.

// sample C#CCN(C)C[C@@H]1C=C2c3cccc4[nH]cc(c34)C[C@H]2N(C)C1 [Example 8] , its ED50 was 17.1 mg/kg

// sample C#CCN(C)C(=O)[C@@H]1C=C2c3cccc4[nH]c(Br)c(c34)C[C@H]2N(C)C1 [Example 5] , its ED50 was 9.2 mg/kg

###

For each record, write down the corresponding Ki.
target-or-test-system: D1 receptor (Homo sapiens)
Sequence (P21728 whole entry): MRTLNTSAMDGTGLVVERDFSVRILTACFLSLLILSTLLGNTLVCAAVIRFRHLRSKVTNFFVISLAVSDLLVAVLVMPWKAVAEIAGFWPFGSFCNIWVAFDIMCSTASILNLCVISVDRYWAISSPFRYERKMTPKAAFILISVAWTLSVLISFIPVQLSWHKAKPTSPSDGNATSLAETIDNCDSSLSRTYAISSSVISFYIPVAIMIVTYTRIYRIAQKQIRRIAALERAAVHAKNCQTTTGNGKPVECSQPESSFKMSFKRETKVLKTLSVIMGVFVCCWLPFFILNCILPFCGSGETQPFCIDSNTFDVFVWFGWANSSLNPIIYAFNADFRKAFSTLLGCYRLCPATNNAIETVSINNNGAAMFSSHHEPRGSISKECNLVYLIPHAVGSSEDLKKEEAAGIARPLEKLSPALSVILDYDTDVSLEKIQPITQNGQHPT
test-protocol: binding, [^3 H]SCH23390
stated-conditions: D1, [^3 H]SCH23390
Give the quantity in nM, number only.

// sample C#CCN(C)C[C@@H]1C=C2c3cccc4[nH]cc(c34)C[C@H]2N(C)C1 [Example 8] , its Ki was 87

// sample C#CCN(C)C(=O)[C@@H]1C=C2c3cccc4[nH]c(Br)c(c34)C[C@H]2N(C)C1 [Example 5] , its Ki was 97
